system: Staphylococcus aureus; test: Antibacterial activity against methicillin-resistant Staphylococcus aureus OM584 after 24 hrs by microdilution method; assay type: functional; details: OM584, 24 h
property label: MIC (µg/mL)
Kindly provide the numeric value in µg/mL only, without the unit symbol.

# compound, assay system, observed result
data = [
    ("Cc1ccc(CC(=O)OC[C@H]2O[C@@H](Oc3c(-c4ccc(O)c(O)c4)oc4cc(O)cc(O)c4c3=O)[C@H](OC(=O)Cc3ccc(C)cc3)[C@@H](O)[C@H]2O)cc1", "Staphylococcus aureus", 2),
]

Please report the recorded MIC for CC1O[C@H](Oc2c(-c3ccc(O)cc3)oc3cc(O)cc(O)c3c2=O)[C@@H](OC(=O)/C=C/c2ccc(O)cc2)[C@@H](O)[C@@H]1OC(=O)/C=C/c1ccc(O)cc1 (stereo partly drawn) . 2

Looking for the measured MIC of CCOc1ccc(C(=O)O[C@H]2[C@H](Oc3c(-c4ccc(O)c(O)c4)oc4cc(O)cc(O)c4c3=O)O[C@H](CO)[C@@H](O)[C@@H]2OC(=O)c2ccc(OCC)cc2)cc1 , can you help? 2

For the compound O=C(O[C@H]1[C@H](Oc2c(-c3ccc(O)c(O)c3)oc3cc(O)cc(O)c3c2=O)O[C@H](CO)[C@@H](O)[C@@H]1OC(=O)c1ccc(F)cc1)c1ccc(F)cc1 , what MIC is on record? 2

GET /values?readout=MIC&item= O=C(Cc1ccc(F)cc1)O[C@H]1[C@H](Oc2c(-c3ccc(O)c(O)c3)oc3cc(O)cc(O)c3c2=O)O[C@H](CO)[C@@H](O)[C@@H]1OC(=O)Cc1ccc(F)cc1 2

Look up MIC: O=C(OC[C@H]1O[C@@H](Oc2c(-c3ccc(O)c(O)c3)oc3cc(O)cc(O)c3c2=O)[C@H](OC(=O)c2ccc(F)cc2)[C@@H](O)[C@H]1O)c1ccc(F)cc1 2

Value lookup for MIC; key = O=C(Cc1ccc(F)cc1)OC[C@H]1O[C@@H](Oc2c(-c3ccc(O)c(O)c3)oc3cc(O)cc(O)c3c2=O)[C@H](OC(=O)Cc2ccc(F)cc2)[C@@H](O)[C@H]1O 1

I would be grateful if you could share the reported MIC for CCCc1ccc(C(=O)O[C@H]2[C@H](Oc3c(-c4ccc(O)c(O)c4)oc4cc(O)cc(O)c4c3=O)O[C@H](CO)[C@@H](O)[C@@H]2OC(=O)c2ccc(CCC)cc2)cc1 . 2

Look at this compound and give its reported MIC. O=C(CCCc1ccc(F)cc1)OC[C@H]1O[C@@H](Oc2c(-c3ccc(O)c(O)c3)oc3cc(O)cc(O)c3c2=O)[C@H](OC(=O)CCCc2ccc(F)cc2)[C@@H](O)[C@H]1O 2

Given the compound Cc1ccc(CCC(=O)OC[C@H]2O[C@@H](Oc3c(-c4ccc(O)c(O)c4)oc4cc(O)cc(O)c4c3=O)[C@H](OC(=O)CCc3ccc(C)cc3)[C@@H](O)[C@H]2O)cc1 , what is its reported MIC? 0.25

Please give the measured MIC for this compound: CCn1cc(C(=O)O)c(=O)c2cc(F)c(N3CCNCC3)cc21 128

// returns reported MIC for input CO[C@@H]1[C@@H](OC(N)=O)[C@@H](O)[C@H](Oc2ccc3c(O)c(NC(=O)c4ccc(O)c(CC=C(C)C)c4)c(=O)oc3c2C)OC1(C)C 0.25

Report MIC for O=C(CCCCc1ccc(F)cc1)OC[C@H]1O[C@@H](Oc2c(-c3ccc(O)c(O)c3)oc3cc(O)cc(O)c3c2=O)[C@H](OC(=O)CCCCc2ccc(F)cc2)[C@@H](O)[C@H]1O please. 4

If you can, please state the reported MIC value of CCOc1ccc(C(=O)OC[C@H]2O[C@@H](Oc3c(-c4ccc(O)c(O)c4)oc4cc(O)cc(O)c4c3=O)[C@H](OC(=O)c3ccc(OCC)cc3)[C@@H](O)[C@H]2O)cc1 . 4

I have this compound here, O=C(CCc1ccc(O)cc1)O[C@H]1[C@H](Oc2c(-c3ccc(O)c(O)c3)oc3cc(O)cc(O)c3c2=O)O[C@H](CO)[C@@H](O)[C@@H]1OC(=O)CCc1ccc(O)cc1 , and I need its recorded MIC. 2

Requested read-out: MIC. Entry: Cc1ccc(CCC(=O)OC[C@H]2O[C@@H](Oc3c(-c4ccc(O)c(O)c4)oc4cc(O)cc(O)c4c3=O)[C@H](O)[C@@H](O)[C@H]2O)cc1 16
